Biological target: SCP2 (human sterol carrier protein 2) (Homo sapiens, UniProt P22307)
Sequence (P22307 425-547): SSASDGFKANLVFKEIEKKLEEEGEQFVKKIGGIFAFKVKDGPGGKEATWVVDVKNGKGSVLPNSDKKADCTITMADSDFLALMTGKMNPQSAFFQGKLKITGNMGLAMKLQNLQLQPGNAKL
ENDPOINT_NAME: Ki (µM)
Write the number in µM without appending the unit.

Request: Ki lookup needed for O=C(O)C(F)(F)C(F)(F)C(F)(F)C(F)(F)C(F)(F)C(F)(F)C(F)(F)C(F)(F)C(F)(F)C(F)(F)C(F)(F)C(F)(F)C(F)(F)C(F)(F)C(F)(F)F [PFHxDA] , thanks.
Response: 8.4
